Tested on: mungbean
method description: Mungbean pouch assay: growth of primary root and shoot
Assay type: in vivo
condition summary: 96 h; 10 ppm (10 mg/L); benzyl ring substitutions; read-out: Percent Change in Primary Root Length of Mungbean

item smiles | unit label | change in vivo at 10 ppm
Oc1ccnc(SCc2cc(F)cc(F)c2)n1 | % | 3
Oc1ccnc(SCc2ccc(F)c(F)c2)n1 | % | 17.6
Oc1ccnc(SCc2ccc(F)cc2)n1 | % | 10.4

Values from patent US9510593B2
